- testedSystem: human adenosine A2b receptor (Homo sapiens (Human), UniProt P29275)
- Sequence (P29275 whole entry): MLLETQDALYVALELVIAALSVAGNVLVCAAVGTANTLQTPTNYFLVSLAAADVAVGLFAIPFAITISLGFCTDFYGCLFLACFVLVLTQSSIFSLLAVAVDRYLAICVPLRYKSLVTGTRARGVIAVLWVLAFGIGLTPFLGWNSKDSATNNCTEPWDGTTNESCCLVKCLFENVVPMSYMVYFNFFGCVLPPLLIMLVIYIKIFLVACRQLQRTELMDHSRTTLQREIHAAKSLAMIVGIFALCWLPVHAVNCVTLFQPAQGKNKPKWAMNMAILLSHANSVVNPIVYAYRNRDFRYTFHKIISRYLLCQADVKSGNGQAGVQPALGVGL
- experiment: Cellular in vitro reporter gene test for A2b receptor activity (CHO-K1, CRE-luciferase, NECA stimulation)
- Assay type: cell-based
- measurementParameters: recombinant CHO-K1 cell line, CRE-luciferase reporter, antagonism of EC50 concentration of NECA; in some cases means of several determinations, rounded to two significant figures; read-out: A2b receptor IC50
measurementLabel: IC50 (nM)

Record excerpt, results attached:
{"columns": ["compound", "IC50, nM"],
 "data": [
  ["COCCn1c(=O)n(C(C)C(F)(F)F)c(=O)c2c(C)c(CN3CCNC(=O)C3=O)sc21 (racemic)", 52],
  ["Cc1c(CN2CCNC(=O)C2=O)sc2c1c(=O)n(C(C)C)c(=O)n2CC1CCO1 (racemic) [Example 397]", 120],
  ["Cc1c(CN2CCNC2=O)sc2c1c(=O)n(C(C)C)c(=O)n2CC1CCCO1 (single isomer, unassigned) [Example 187]", 6.3],
  ["COCCn1c(=O)n(CC2CC2)c(=O)c2c(C)c(CN3CCNC3=O)sc21", 9.7],
  ["Cc1c(CN2CCNC2=O)sc2c1c(=O)n(CC(C)(C)C)c(=O)n2CC1CCCO1 (single isomer, unassigned) [Example 407]", 32]
]}

(P) CCn1c(=O)c2c(C)c(CN3C(=O)OCC3(C)C)sc2n(CCC(F)(F)F)c1=O
(Q) CCCn1cnn(Cc2sc3c(c2C)c(=O)n(CC)c(=O)n3CCC(F)(F)F)c1=O
(R) CCn1c(=O)c2c(C)c(Cn3cc(C)[nH]c3=O)sc2n(CCC(F)(F)F)c1=O
Sort the 3 compounds by IC50; largest first, smallest last. # respond with the labels, arranged in the requested order
Q, R, P
(Q: 99 nM, R: 18 nM, P: 8.8 nM)

(A) Cc1c(CN2CCNC2=NC#N)sc2c1c(=O)n(CC(F)(F)F)c(=O)n2CCC(F)(F)F
(B) COCCn1c(=O)n(C(C)C(F)(F)F)c(=O)c2c(C)c(CN3CCNC3=NC#N)sc21 (single isomer, unassigned) [Example 510]
(C) COCCn1c(=O)n(C(C)COC)c(=O)c2c(C)c(CN3CCNC3=O)sc21 (single isomer, unassigned) [Example 330]
(D) COCCn1c(=O)c2c(C)c(CN3CCNC3=NC#N)sc2n(CC2CCCO2)c1=O (single isomer, unassigned) [Example 368]
Sort the 4 compounds by IC50; largest first, smallest last. # respond with the labels, arranged in the requested order
C, D, B, A
(C: 220 nM, D: 82 nM, B: 47 nM, A: 12 nM)

(1) Cc1c(CN2CCNC2=NC#N)sc2c1c(=O)n(CC(F)(F)F)c(=O)n2CC1CCO1 (stereo not shown) [Example 359]
(2) Cc1c(CN2CCNC(=O)C2=O)sc2c1c(=O)n(CC(C)(C)C)c(=O)n2CC1CCCO1 (single isomer, unassigned) [Example 484]
(3) Cc1c(CN2CCNC(=O)C2=O)sc2c1c(=O)n(CC(C)(C)C)c(=O)n2CCC(F)(F)F
Which order do these items take when sorted by rising IC50? List them. # respond with the labels, arranged in the requested order
3, 1, 2
(3: 10 nM, 1: 37 nM, 2: 67 nM)

* * *

- testedSystem: human adenosine A2b receptor (Homo sapiens (Human), UniProt P29275)
- experiment: Cellular in vitro reporter gene test for A2b receptor activity (CHO-K1, CRE-luciferase, NECA stimulation)
- Assay type: cell-based
- measurementParameters: recombinant CHO-K1 cell line, CRE-luciferase reporter, antagonism of EC50 concentration of NECA; in some cases means of several determinations, rounded to two significant figures; read-out: A2b receptor IC50
- Procedure: B-1. Cellular In Vitro Tests for Determining A2b Receptor Activity and Adenosine Receptor Selectivity In the case of the A2a and A2b cell lines, this is a minimal promoter having a plurality of cAMP-responsive elements (CRE). Stimulation of the Gs-coupled A2b or A2a receptors by NECA ultimately leads, via formation of cAMP, to CRE-dependent induction of luciferase expression, which is detected 3 hours after the start of the incubation with NECA using a detection solution in a suitable luminometer. […]
pIC50: −log10 of the molar value.
measurementLabel: pIC50

{"columns": ["molecularString", "measurementLabel", "resultValue"],
 "data": [
  ["COCCn1c(=O)c2c(C)c(CN3CCNC3=NC(=O)OC)sc2n(CCC(F)(F)F)c1=O", "pIC50", 8.33]
]}

(P) Cc1c(CN2CCNC2=O)sc2c1c(=O)n(C(C)C)c(=O)n2CCC(F)(F)F
(Q) CCOCCn1c(=O)n(CCOC)c(=O)c2c(C)c(CN3CCNC3=S)sc21
Which has the higher pIC50, P or Q ? Reply briefly: the label of your chosen item.
P

* * *

- testedSystem: human adenosine A2b receptor (Homo sapiens (Human), UniProt P29275)
- experiment: Cellular in vitro reporter gene test for A2b receptor activity (CHO-K1, CRE-luciferase, NECA stimulation)
- Assay type: cell-based
- measurementParameters: recombinant CHO-K1 cell line, CRE-luciferase reporter, antagonism of EC50 concentration of NECA; in some cases means of several determinations, rounded to two significant figures; read-out: A2b receptor IC50
measurementLabel: IC50 (nM)

Record excerpt, results attached:
{"columns": ["compound", "testedSystem", "unitAbbrev", "IC50"],
 "data": [
  ["[2H]C([2H])(c1sc2c(c1C)c(=O)n(CC)c(=O)n2CCOC)N1CCNC1=O [Example 415]", "human adenosine A2b receptor (Homo sapiens (Human), UniProt P29275)", "nM", 9],
  ["Cc1c(CN2CCNC2=O)sc2c1c(=O)n(CC(F)F)c(=O)n2CC1CCO1 (single isomer, unassigned) [Example 218]", "human adenosine A2b receptor (Homo sapiens (Human), UniProt P29275)", "nM", 22],
  ["C=CCn1cnn(Cc2sc3c(c2C)c(=O)n(CC)c(=O)n3CCOC)c1=O [Example 112]", "human adenosine A2b receptor (Homo sapiens (Human), UniProt P29275)", "nM", 500]
]}

(A) Cc1c(Cn2cc[nH]c2=O)sc2c1c(=O)n(C(C)C)c(=O)n2CC1CCCO1 (single isomer, unassigned) [Example 248]
(B) CCn1c(=O)c2c(C)c(Cn3[nH]ccc3=O)sc2n(CC2CCCO2)c1=O (racemic) [Example 129]
Which has the higher IC50, A or B ? Reply briefly: the label of your chosen item.
B

* * *

- testedSystem: human adenosine A2b receptor (Homo sapiens (Human), UniProt P29275)
- experiment: Cellular in vitro reporter gene test for A2b receptor activity (CHO-K1, CRE-luciferase, NECA stimulation)
- Type: cell-based
- measurementParameters: recombinant CHO-K1 cell line, CRE-luciferase reporter, antagonism of EC50 concentration of NECA; in some cases means of several determinations, rounded to two significant figures; read-out: A2b receptor IC50
pIC50: −log10 of the molar value.
measurementLabel: pIC50

{"columns": ["compound", "pIC50"],
 "data": [
  ["Cc1c(CN2CCNC2=O)sc2c1c(=O)n(CC(C)C)c(=O)n2CC1CCO1 (racemic) [Example 194]", 7.82]
]}

(1) COC(C)(C)Cn1c(=O)c2c(C)c(CN3CCNC3=S)sc2n(CCCF)c1=O
(2) COCCn1c(=O)n(C(C)C)c(=O)c2c(C)c(CN3CCNC3=O)sc21
Which has the higher pIC50, 1 or 2 ? Reply briefly: the label of your chosen item.
2

* * *

- testedSystem: human adenosine A2b receptor (Homo sapiens (Human), UniProt P29275)
- experiment: Cellular in vitro reporter gene test for A2b receptor activity (CHO-K1, CRE-luciferase, NECA stimulation)
- Assay type: cell-based
- measurementParameters: recombinant CHO-K1 cell line, CRE-luciferase reporter, antagonism of EC50 concentration of NECA; in some cases means of several determinations, rounded to two significant figures; read-out: A2b receptor IC50
- Experimental: B-1. Cellular In Vitro Tests for Determining A2b Receptor Activity and Adenosine Receptor Selectivity In the case of the A2a and A2b cell lines, this is a minimal promoter having a plurality of cAMP-responsive elements (CRE). Stimulation of the Gs-coupled A2b or A2a receptors by NECA ultimately leads, via formation of cAMP, to CRE-dependent induction of luciferase expression, which is detected 3 hours after the start of the incubation with NECA using a detection solution in a suitable luminometer. […]
measurementLabel: IC50 (nM)

Record excerpt, results attached:
{"columns": ["compound", "unitAbbrev", "IC50"],
 "data": [
  ["Cc1c(CN2CCNC2=O)sc2c1c(=O)n(CC(F)(F)F)c(=O)n2CC1CCCO1 (racemic) [Example 209]", "nM", 12],
  ["CCC(C)n1c(=O)c2c(C)c(CN3CCNC3=O)sc2n(CCOC)c1=O (racemic)", "nM", 38],
  ["COC(=O)N=C1NCCN1Cc1sc2c(c1C)c(=O)n(C(C)C)c(=O)n2CC1CCCO1 (single isomer, unassigned) [Example 460]", "nM", 22]
]}

(A) COC(=O)N=C1NCCN1Cc1sc2c(c1C)c(=O)n(CC(F)(F)F)c(=O)n2CC1CCO1 (single isomer, unassigned) [Example 467]
(B) COCCn1c(=O)n(C(C)C(F)(F)F)c(=O)c2c(C)c(CN3CCNC3=O)sc21 (single isomer, unassigned) [Example 498]
(C) CCn1c(=O)c2c(C)c(CN3CC[C@@H](O)C3=O)sc2n(CCC(F)(F)F)c1=O
(D) Cc1c(CN2CCN(C(C)C)C(=O)C2=O)sc2c1c(=O)n(CC(C)C)c(=O)n2CCCF
Which order do these items take when sorted by rising IC50? List them. # respond with the labels, arranged in the requested order
C, A, B, D
(C: 3.9 nM, A: 30 nM, B: 79 nM, D: 120 nM)
